# study-system: T1, mouse TEAD4(210–427), as purified (SPR) (mouse), Q62296
# T1 chain: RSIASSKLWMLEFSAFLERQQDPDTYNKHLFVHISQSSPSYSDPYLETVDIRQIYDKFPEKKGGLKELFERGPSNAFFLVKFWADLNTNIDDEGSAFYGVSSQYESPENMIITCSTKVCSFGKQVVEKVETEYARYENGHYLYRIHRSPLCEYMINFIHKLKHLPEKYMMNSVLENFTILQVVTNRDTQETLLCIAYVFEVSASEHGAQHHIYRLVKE
# method-summary: SPR; GST-hTEAD1 and mTEAD4 covalently tethered (NHS/EDC) on CM5 chips, 2000–3000 RU; peptides as analytes, threefold dilutions, typically 30 µM top concentration; 10 mM HEPES, 150 mM NaCl, 0.05% Tween-20, pH 7.4, 0.3% DMSO, 20 °C; steady-state fit, 1:1 model
Exercise: state measured Kd for each of the binders provided.
// units = µM; emit number, no label

Q: Give the measured Kd of SVDDHFAKALGDTWLQIKAA (modifications not checked) [VGL4 C-terminal two-helix motif peptide (peptide 4, helices α2/α3), Q80V24 203-256] .
Ans: 3.1

Q: Same thing, different binder: DPVVEEHFRRSLGKNY (modifications not checked) [VGL4 N-terminal α-helix peptide (peptide 2, helix α1), Q80V24 203-256]
Ans: 21.8
